condition.description: 313.15 K; 101.33 kPa; Liquid; Capillary tube (Ostwald / Ubbelohde) method
measured.property: viscosity (mPa·s)

Below: 2 molecules and their reported viscosity.
May I ask what viscosity has been recorded for COC(=O)OC [dimethyl carbonate] ? 0.488

Query (molecule): `CC1CCCCC1` ; field requested: viscosity 0.562

(P) CCOC(=O)OCC [diethyl carbonate]
(Q) C1CCCC1
Between the two listed entries P and Q , which has its viscosity at the higher number? Identify your selection by its label. P
(P: 0.618 mPa·s, Q: 0.355 mPa·s)

----------
condition.description: 308.15 K; 101.33 kPa; Liquid; Capillary tube (Ostwald / Ubbelohde) method
measured.property: viscosity (mPa·s)

// returns reported viscosity for input `C1CCCC1` 0.374

What measured viscosity goes with `CC1CCCCC1` ? 0.598

Sample CCOC(=O)OCC [diethyl carbonate] — what was its viscosity? 0.658

Reported viscosity, compound COC(=O)OC [dimethyl carbonate] : ____ 0.517
